B1: TPR t1 (parent)
chain: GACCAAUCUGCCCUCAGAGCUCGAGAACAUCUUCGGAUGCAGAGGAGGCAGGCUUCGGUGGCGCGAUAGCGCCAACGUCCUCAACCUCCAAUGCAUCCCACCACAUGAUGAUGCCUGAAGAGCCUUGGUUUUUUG

- Variants of: B1
- ASSAY_OVERVIEW: polymerase ribozyme fitness, log enrichment relative to wild type (log ratio); higher = more active; in vitro selection for triplet polymerase activity
The entries below are paired with their reported polymerase ribozyme fitness (log ratio).
OBSERVED_PROPERTY: polymerase ribozyme fitness (log ratio)

SEQ_TEXT	OBSERVED_PROPERTY	ENDPOINT_VALUE
GACCAAUCUGCUCUCAGAGCUCGAGAACAUCUUAGGAUGCAGAGGAGGCAGGCUUCGGUGGCGCGAUAGCGCCAACGUCCUCAACCUCCAAUGCAUCCCACCACAUGAUGAUGCCUGAAGAGCCUUGGUUUUUUG [C12U C34A]	polymerase ribozyme fitness (log ratio)	-2.28
GACCAAUCUGCCCUCAGAGCUCGAGAACAUCUUCGGAUGCAGAGGAGGCAGGCUUCGGUGGCGCGAUAGCGCUAACGUCCUCAACCUCCAACGCAUCCCACCACAUGAUGAUGCCUGAAGAGCCUUGGUUUUUUG [C73U U92C]	polymerase ribozyme fitness (log ratio)	-1.83
GACCAAUAUGCCCUCUGAGCUCGAGAACAUCUUCGGAUGCAGAGGAGGCAGGCUUCGGUGGCGCGAUAGCGCCAACGUCCUCAACCUCCAAUGCAUCCCACCACAUGAUGAUGCCUGAAUAGCCUUGGUGUUUUG [C8A A16U G120U U130G]	polymerase ribozyme fitness (log ratio)	1.06
GACCAAUAUGCCCUCAGAGCUCGAGAACAUCUUCGGAUGCAGAGGAGGCAGGCUUCGGUGGCGCGAUAGCGCCAACGUCCUCAACGUCCAAUGCAUCCCACUAUAUGAUAAUGCCUGAAGAGCCUUGGUUUUUUG [C8A C86G C102U C104U G110A]	polymerase ribozyme fitness (log ratio)	-4.28
GACCAAUGUGCCCUCAGAGCUCGAGAACAUCUUCGGAUGCAGAGGAGGCAGGCUUCGGUGGUGCGAUAGCGCCAACGUCCUCAACCUCCAAUGCAUCCCACCACAUGAUGAUGCCUGUAGAGCCUUGGUUCUUUG [C8G C62U A118U U131C]	polymerase ribozyme fitness (log ratio)	1.45
GACCAAUCUGCCCUCAGAGCUCGAGAACAUCUUCGGAUGCAGAGGAGGCAGGCUUCGGUGGCGGGAUAGCGCCAACGUCCUCAUCCUCCAAUGCAUCCCACCACAUGAUGAAGCCUGAAGAGCCUUGGUUUUUUG [C64G A84U U112A]	polymerase ribozyme fitness (log ratio)	-6.14
GACCAAUCUGCCCUCAGAGCUCGAGAACAUCUUCGGAUGCUGAGGAGGCAGGCUUCGGUGGCGUGAUAGCGCCAACGUCCUCAACCUCCAAUGUAUCCCACCACAUGAUGAUGCCUGAAGAGCCUUGGUUUUGUG [A41U C64U C94U U133G]	polymerase ribozyme fitness (log ratio)	-1.82
GACCAAUCUGCCCUCAGAGCUCGAGAACAUCUUCGGAUGCAGAGGAGGCAGGCUUCGGUGGCGCGAUAGCGCCAACGUCCUCAACCUCCAAUGCAUCCCACCACAUGAUGAUGCCUGAAGUGCCAUGGUUUUUUG [A121U U125A]	polymerase ribozyme fitness (log ratio)	1.66
GACCAAUCUGCCCUCAGAGCUCGAGAACAUCUUCGGAUGCAGAGGAUGCAGGCCUCGGUGGCGCGAUAGCGCCAACGUCCUCAACCUCCAAUGCAUCCCACCACAUGAUGAUGCCUGAAGAGCCUUGGUUUUUUG [G47U U54C]	polymerase ribozyme fitness (log ratio)	-3.33
GACCAAUCUGCCCUCAGAGCUCGAGAACAUCUUCGGAUGCAGAGGACGCAGGCUUCGGUGGCGCGAUAGCACCAACGUCCUCAACCUCCAAUGCAUCCCACCACAUGAUGAUGCCUGAAGAGCCUUGGUUUUUUG [G47C G71A]	polymerase ribozyme fitness (log ratio)	-3.14
GACCAAUCUGCCCUCAGAGCUCGAGAACAUCUUCGGAUGCAGAGGAGGCAGGCUUCGGUGGGGCGAUAGCGCCAACGUCCUCUUCCUCCAAUGCAUCCCACCACAUGAUGAUGCCUGAAGAGCCUUGGUUUUUUG [C62G A83U A84U]	polymerase ribozyme fitness (log ratio)	-2.65
